Item-by-item account of melting point

Take a look at these entries with their results.
Compound: Cn1nc(-c2ccccc2)nc1-c1cccnc1
melting point: 97 to 98 °C
//
Compound: CCCSC(C)(C(=O)O)c1ccc2oc(Cc3nc(-c4ccccc4)oc3C)cc2c1 (stereo not given)
melting point: 169 to 170 °C
//
Compound: O=C(Nc1ccccn1)c1c(OC(F)F)ccc2oc3ccc(C(F)(F)F)cc3c12
melting point: 169 to 170 °C
//
Compound: FCc1cccc(C#CCCn2cc(-c3ccc(F)cc3)nn2)n1
melting point: 100 to 103 °C
//
Compound: CC(C)(C)OC(=O)NCCc1c[nH]c2ccc(C#N)cc12
melting point: 129 to 132 °C
//
Compound: O=C(O)C1CC=CCC1C(=O)N1CCc2cc(S(=O)(=O)N3CCN(c4cccc(Cl)c4)CC3)ccc21 (stereo not given)
melting point: 146 to 148 °C
//
Compound: COc1cc2c(cc1OC)-c1ncc(C(=O)O)c(=O)n1CC2
melting point: 264 to 266 °C
//
Compound: COc1cc(C(=O)NS(=O)(=O)c2ccccc2C)ccc1Cc1cccc2ccc(C(N)=O)cc12
melting point: 255 to 256 °C
//
Compound: COC(=O)c1ccc(S(C)(=O)=O)c(COc2ccnn2C)c1Cl
melting point: 70 °C
//
Compound: COCS(=O)(=O)[C@H](C)[C@](O)(Cn1cncn1)c1ccc(F)cc1F
melting point: 102 to 103 °C

Exercise: Please give the documented melting point of O=S1(=O)NC(C2CCCCC2)Nc2ccc(-c3ccccc3Cl)cc21 (stereo not given)
Key: 233 to 236 °C

Exercise: Please give the documented melting point of `CCCc1c(O)c(C(C)=O)cc(Cl)c1OCCOCCOc1c(C(C)=O)ccc(OCC(=O)O)c1CCC`
Key: 89 to 91 °C

Exercise: Please give the documented melting point of `O=Cc1c[nH]c2c1ccc1c2[nH]c2cc(Cl)cc(Cl)c21`
Key: > 250 °C

Exercise: Please give the documented melting point of `CC(C)(C)OC(=O)Nc1ccccc1NC(=O)c1ccc(C(=O)Nc2cccc(Nc3nc(-c4cccnc4)cs3)c2)s1`
Key: 198 °C

Exercise: Please give the documented melting point of `Nc1nc2ccc3ccccc3c2s1`
Key: 258 to 260 °C

Exercise: Please give the documented melting point of `C/C=C1\NC(=O)N(CCCC)C1=O`
Key: 127 °C

Exercise: Please give the documented melting point of `COC(=O)c1ccccc1-c1cc(-c2ccc(OC)cc2)n(C(C)=O)n1`
Key: 119 to 121 °C

Exercise: Please give the documented melting point of `CCOC(=O)Nc1csc2cc(OC)ccc12`
Key: 88 °C

Exercise: Please give the documented melting point of `CC[C@H](COCCCc1ccccc1)n1cnc2c(N)nc3ccccc3c21`
Key: 118 to 120 °C

Exercise: Please give the documented melting point of `COC(=O)CCc1ccc(N2CCN(c3ccc(CCN)cc3)C2=O)cc1`
Key: > 200 °C

The values you see were collected from a melting point compilation (Tetko et al.; mined from patent text by program, amines drawn as free bases though some values may be those of a salt).
